Test: Early bioavailability determination (plasma PK)
Format: in vivo, Sprague Dawley rats
Details: male, Sprague Dawley, plasma; PO, 10 mg/kg, rat, mean; read-out: AUC24
propertyLabel: AUC (ng·h/mL)
Dear colleague, please return just the value in ng·h/mL, with no unit written.

# input compound: Cc1ccnc(Nc2cccc(-c3cnc(N4CCNC(=O)C45CC5)o3)c2)n1 [Compound 001] ; wanted: its AUC 1030

###

Molecular target: Jak3 (Homo sapiens (Human), UniProt P52333)
Sequence (P52333 whole entry): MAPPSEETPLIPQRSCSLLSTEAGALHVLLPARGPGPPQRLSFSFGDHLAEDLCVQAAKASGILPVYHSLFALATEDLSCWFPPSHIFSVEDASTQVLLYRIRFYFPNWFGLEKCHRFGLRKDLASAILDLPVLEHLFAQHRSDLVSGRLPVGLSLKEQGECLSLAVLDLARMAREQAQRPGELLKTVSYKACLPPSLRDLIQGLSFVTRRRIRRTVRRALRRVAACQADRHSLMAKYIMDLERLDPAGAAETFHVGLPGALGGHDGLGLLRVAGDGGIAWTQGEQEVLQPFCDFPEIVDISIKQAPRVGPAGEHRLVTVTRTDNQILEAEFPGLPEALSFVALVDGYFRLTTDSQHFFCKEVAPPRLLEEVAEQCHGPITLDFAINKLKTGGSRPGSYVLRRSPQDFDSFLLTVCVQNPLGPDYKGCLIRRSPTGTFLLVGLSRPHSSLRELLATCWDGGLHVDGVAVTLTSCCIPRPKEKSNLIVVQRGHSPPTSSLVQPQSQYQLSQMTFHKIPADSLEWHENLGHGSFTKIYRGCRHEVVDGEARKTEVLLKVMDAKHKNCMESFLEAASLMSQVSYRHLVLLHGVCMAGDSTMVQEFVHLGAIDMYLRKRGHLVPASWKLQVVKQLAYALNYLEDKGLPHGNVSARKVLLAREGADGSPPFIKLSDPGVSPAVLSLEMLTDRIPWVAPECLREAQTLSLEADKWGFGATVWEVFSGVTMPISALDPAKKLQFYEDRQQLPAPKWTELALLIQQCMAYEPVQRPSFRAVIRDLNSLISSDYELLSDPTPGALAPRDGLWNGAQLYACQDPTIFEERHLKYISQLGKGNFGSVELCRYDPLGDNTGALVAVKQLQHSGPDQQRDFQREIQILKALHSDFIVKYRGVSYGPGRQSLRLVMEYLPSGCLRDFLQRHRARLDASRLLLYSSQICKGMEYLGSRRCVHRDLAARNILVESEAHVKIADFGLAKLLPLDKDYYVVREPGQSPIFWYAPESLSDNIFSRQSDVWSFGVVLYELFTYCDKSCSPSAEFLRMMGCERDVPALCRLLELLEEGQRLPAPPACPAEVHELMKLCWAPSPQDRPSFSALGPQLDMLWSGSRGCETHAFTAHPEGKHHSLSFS
propertyLabel: IC50

Checklist item: IC50 tested on Jak3 (Homo sapiens (Human), UniProt P52333), entry `Cc1ccnc(Nc2cccc(-c3cnc(N4CCNC(=O)C45CC5)o3)c2)n1` , value? 20 µM

###

Biological target: SYK kinase (Homo sapiens (Human))
Test: In vitro SYK inhibition assay (HTRF kinase assay)
Type: biochemical
Settings: read-out: Syk (IC50)
pIC50: −log10 of the molar value.
Overview of reported pIC50 across a group of molecules:

The following molecules have reported results that may help.
N#Cc1ccnc(Nc2cccc(-c3cnc(N4CCNC(=O)C45CC5)o3)c2)n1: > 6.30
O=C1NCCN(c2ncc(-c3cccc(Nc4nccc(N5CCOCC5)n4)c3)o2)C12CC2: < 5.70
O=C1NCCN(c2ncc(-c3cccc(Nc4nccc(-c5cccs5)n4)c3)o2)C12CC2: > 6.30
Cc1ccnc(Nc2cc(CN3CCOCC3)cc(-c3cnc(N4CCNC(=O)C45CC5)o3)c2)n1: > 6.30
Cc1ccnc(Nc2cccc(-c3cnc(N4CCNC(=O)C45CC5)o3)c2)c1: 5.70 to 6.30

// returns reported pIC50 for input `O=C1NCCN(c2ncc(-c3cc(CN4CCOCC4)cc(Nc4nccc(C(F)(F)F)n4)c3)o2)C12CC2` > 6.30

Which pIC50 value is on record for `O=C1NCCN(c2ncc(-c3cccc(Nc4nccc(C(F)(F)F)n4)c3)o2)C12CCC2` ? > 6.30

Look up pIC50 for this molecule: `O=C1NCCN(c2ncc(-c3cccc(Nc4nccc(-c5ccccc5)n4)c3)o2)C12CC2` > 6.30

###

Target: Src (Homo sapiens (Human))
Sequence (P12931 whole entry, looked up, species assumed): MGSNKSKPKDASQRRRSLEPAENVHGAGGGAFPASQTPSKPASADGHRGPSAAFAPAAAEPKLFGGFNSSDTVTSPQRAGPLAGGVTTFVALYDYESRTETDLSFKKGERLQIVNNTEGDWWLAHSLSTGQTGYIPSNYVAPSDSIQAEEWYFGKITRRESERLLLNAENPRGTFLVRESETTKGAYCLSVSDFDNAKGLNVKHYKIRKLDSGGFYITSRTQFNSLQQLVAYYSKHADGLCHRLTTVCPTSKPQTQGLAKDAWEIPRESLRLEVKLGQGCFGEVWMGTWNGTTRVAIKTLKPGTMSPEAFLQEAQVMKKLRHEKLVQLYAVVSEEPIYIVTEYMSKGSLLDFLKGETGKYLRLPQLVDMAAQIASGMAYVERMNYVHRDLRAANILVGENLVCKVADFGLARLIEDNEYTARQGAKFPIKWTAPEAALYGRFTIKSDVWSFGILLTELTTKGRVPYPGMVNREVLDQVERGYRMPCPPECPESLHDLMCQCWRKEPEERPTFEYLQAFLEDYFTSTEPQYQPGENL
propertyLabel: IC50 (nM)
Note: unit nM is implicit; provide only the numeric part.

Give IC50 (Src (Homo sapiens (Human))) of the following molecule: Cc1ccnc(Nc2cccc(-c3cnc(N4CCNC(=O)C45CC5)o3)c2)n1 [Compound 001] 2600

###

Assay: Early bioavailability determination (plasma PK)
Format: in vivo, Sprague Dawley rats
Settings: male, Sprague Dawley, plasma; IV, 2 mg/kg, rat, mean
propertyLabel: half-life
Lab note: write values as number then unit, every time.

Can you share its half-life? I mean this molecule: `Cc1ccnc(Nc2cccc(-c3cnc(N4CCNC(=O)C45CC5)o3)c2)n1` 36 min

###

Target: VEGFR2 (Homo sapiens (Human))
Sequence (P35968 20-1356, species assumed): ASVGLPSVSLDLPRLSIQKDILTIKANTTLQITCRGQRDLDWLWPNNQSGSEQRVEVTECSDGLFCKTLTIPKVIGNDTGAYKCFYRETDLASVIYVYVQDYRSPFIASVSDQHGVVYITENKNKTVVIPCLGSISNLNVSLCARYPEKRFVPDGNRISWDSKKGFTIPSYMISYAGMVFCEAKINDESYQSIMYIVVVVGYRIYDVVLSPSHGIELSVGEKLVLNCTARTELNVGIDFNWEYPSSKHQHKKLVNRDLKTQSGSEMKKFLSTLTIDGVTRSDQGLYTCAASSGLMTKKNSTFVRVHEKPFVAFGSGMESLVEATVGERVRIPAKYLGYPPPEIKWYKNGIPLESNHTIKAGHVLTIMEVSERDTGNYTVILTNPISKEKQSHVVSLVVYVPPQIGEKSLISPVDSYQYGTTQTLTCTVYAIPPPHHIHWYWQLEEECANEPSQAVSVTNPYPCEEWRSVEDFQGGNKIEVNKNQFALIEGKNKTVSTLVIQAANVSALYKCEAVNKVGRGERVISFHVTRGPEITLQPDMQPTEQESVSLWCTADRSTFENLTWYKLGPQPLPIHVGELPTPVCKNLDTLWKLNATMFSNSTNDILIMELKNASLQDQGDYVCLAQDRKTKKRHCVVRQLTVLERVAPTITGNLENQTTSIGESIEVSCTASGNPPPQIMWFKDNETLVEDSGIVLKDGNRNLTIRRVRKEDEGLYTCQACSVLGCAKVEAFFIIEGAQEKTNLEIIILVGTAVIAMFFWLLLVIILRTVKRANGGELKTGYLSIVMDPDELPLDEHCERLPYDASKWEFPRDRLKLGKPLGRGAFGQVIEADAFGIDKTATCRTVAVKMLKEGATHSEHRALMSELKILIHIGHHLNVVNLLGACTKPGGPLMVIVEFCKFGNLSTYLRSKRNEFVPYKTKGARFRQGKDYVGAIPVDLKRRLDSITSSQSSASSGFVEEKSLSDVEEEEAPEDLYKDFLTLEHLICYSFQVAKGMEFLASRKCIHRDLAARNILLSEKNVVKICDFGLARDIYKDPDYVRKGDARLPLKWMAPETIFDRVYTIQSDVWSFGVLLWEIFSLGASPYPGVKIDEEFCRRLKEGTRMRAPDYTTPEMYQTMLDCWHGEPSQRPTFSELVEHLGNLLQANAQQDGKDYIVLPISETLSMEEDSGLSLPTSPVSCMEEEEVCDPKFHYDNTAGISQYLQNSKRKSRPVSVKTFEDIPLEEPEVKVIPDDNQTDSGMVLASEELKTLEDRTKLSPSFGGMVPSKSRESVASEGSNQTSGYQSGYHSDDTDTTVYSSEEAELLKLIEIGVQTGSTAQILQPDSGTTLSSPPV
propertyLabel: IC50 (µM)
Please reply with the bare figure in µM and do not write the unit itself.

Hello, I am looking for reported IC50 with VEGFR2 (Homo sapiens (Human)) for `Cc1ccnc(Nc2cccc(-c3cnc(N4CCNC(=O)C45CC5)o3)c2)n1` . Could you help? 20

###

Biological target: UniProt Q12809
Sequence (Q12809 whole entry): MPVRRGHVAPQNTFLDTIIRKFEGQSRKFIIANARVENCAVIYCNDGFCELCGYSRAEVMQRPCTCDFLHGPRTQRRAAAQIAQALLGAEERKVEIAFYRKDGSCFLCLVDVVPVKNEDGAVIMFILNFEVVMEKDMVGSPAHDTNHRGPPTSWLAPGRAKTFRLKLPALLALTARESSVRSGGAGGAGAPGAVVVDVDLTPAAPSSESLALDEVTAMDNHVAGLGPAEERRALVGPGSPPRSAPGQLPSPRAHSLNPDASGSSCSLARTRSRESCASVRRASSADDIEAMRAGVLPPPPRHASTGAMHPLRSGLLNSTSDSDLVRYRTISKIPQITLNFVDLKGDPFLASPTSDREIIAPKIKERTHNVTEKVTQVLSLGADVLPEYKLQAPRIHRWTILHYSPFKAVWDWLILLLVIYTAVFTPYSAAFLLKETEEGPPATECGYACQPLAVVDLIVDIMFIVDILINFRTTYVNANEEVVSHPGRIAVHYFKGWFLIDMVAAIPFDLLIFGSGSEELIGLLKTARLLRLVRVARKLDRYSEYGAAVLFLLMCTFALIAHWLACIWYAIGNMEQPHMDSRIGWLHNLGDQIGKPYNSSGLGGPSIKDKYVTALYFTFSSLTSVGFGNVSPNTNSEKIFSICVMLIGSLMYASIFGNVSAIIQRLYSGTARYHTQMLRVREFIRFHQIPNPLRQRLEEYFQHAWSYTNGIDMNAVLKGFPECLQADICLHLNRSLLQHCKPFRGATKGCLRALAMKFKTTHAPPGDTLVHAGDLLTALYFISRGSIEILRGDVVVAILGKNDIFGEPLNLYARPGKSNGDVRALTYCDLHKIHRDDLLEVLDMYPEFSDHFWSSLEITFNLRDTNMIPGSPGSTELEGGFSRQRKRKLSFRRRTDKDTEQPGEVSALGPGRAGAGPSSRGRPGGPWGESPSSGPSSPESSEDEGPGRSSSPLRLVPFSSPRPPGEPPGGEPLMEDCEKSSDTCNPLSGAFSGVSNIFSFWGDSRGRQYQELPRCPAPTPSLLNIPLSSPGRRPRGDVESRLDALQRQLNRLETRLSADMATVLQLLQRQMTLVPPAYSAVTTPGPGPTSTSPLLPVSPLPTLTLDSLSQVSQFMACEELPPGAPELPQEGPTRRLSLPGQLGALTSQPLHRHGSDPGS
Assay: Predictor hERG Fluorescence Polarization binding assay
Conditions: 100% = E-4031
propertyLabel: inhibition at 3 µM (%)
Respond numerically; units are % and should not be typed.

Field: inhibition at 3 µM (UniProt Q12809). Entry: Cc1ccnc(Nc2cccc(-c3cnc(N4CCNC(=O)C45CC5)o3)c2)n1 [Compound 001] 0

Data origin: patent US10053455B2
